experimental.system: Nuclear receptor subfamily 1 group I member 3 (Homo sapiens) (UniProt Q14994)
Sequence (Q14994 whole entry, looked up): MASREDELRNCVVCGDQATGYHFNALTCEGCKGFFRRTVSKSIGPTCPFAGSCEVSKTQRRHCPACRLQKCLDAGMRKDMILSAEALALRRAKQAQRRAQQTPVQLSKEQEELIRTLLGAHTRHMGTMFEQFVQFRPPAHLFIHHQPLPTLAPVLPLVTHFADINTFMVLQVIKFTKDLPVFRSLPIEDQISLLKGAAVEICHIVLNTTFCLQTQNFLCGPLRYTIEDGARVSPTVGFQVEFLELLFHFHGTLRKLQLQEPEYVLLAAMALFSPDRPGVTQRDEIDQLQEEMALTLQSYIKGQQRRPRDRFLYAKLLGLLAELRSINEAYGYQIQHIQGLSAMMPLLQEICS
procedure.text: qHTS assay to identify small molecule agonists of the constitutive androstane receptor (CAR) signaling pathway (AID 1224839); also: nearly all actives have a fitted effect of over 15% in size;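 as to activation: HepG2 cells stably carrying human CAR and a CYP2B6 luciferase reporter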
stated.conditions: HepG2 hCAR CYP2B6-luciferase, agonist mode, 24 h; series mostly up to 92.4 µM
Records with an inconclusive call do not appear. The source made the active and inactive calls. Calls follow the shape of the dose curve; as a rule, active = well fitted activation curve with a large enough effect in the repeat runs; inconclusive = weak or mixed curves; inactive = no such curve, though single readings can be large or run the other way.
A correct response names exactly one class from yes (active), no (inactive)

Some solved cases for reference:
[[record]]
molecule = "Clc1ccc(C(Cn2ccnc2)OCc2ccsc2Cl)c(Cl)c1 (stereo not drawn)"
group = "yes"

[[record]]
molecule = "NCCCCCCNCCCCCCN"
group = "no"

[[record]]
molecule = "Cc1cccc(N(C)C)c1"
group = "no"

[[record]]
molecule = "CC1=CCC(=O)O1"
group = "no"

[[record]]
molecule = "C=CC(=O)OCCOCC(CC)(COCCOC(=O)C=C)COCCOC(=O)C=C"
group = "no"


Look up the recorded call for c1cc(OCC2CO2)cc(OCC2CO2)c1 (stereo not drawn) in this test.
no

Do the same for Oc1ccc(-c2ccc(O)cc2)cc1 please
yes

Do the same for CCN=c1cc2oc3cc(NCC)c(C)cc3c(-c3ccccc3C(=O)OCC)c-2cc1C please
no

Do the same for NC(=O)C(=O)N/N=C/c1ccc([N+](=O)[O-])o1 please
no

Do the same for CC1CNCC(C)O1 (stereo not drawn) please
no

Do the same for CCCCN(C)C please
no

Do the same for Cc1c(C(=O)O)cccc1[N+](=O)[O-] please
no

Do the same for O=C1OC(=O)c2ccc3c4c(ccc1c24)C(=O)OC3=O please
no
